Values compiled from patent US20150231147A1.

ASSAY_REMARKS: Serum noribogaine pharmacokinetics in patients, Phase IB study
Type: in vivo, human
TEST_CONDITIONS: human, serum; Cohort 2 (120 mg), opioid-dependent patients, mean ± SD; unit inferred
Procedure: The efficacy of noribogaine in humans was evaluated in opioid-dependent participants in a randomized, placebo-controlled, double-blind trial. […] See U.S. application Ser. No. 14/214,157, filed Mar. 14, 2014 and Ser. No. 14/346,655, filed Mar. 21, 2014, which are incorporated herein by reference in their entireties. Three cohorts of nine (9) subjects (6 administered noribogaine and 3 administered placebo in each cohort) were evaluated for tolerability, pharmacokinetics, and efficacy. […]

>  <CHEMICAL_STRING>
CC[C@H]1CC2C[C@H]3c4[nH]c5ccc(O)cc5c4CCN(C2)C13

>  <Vd/F / L>
2110

$$$$
